Tested On: human recombinant 5-HT2A receptor (Homo sapiens (Human))
Sequence (P28223 whole entry): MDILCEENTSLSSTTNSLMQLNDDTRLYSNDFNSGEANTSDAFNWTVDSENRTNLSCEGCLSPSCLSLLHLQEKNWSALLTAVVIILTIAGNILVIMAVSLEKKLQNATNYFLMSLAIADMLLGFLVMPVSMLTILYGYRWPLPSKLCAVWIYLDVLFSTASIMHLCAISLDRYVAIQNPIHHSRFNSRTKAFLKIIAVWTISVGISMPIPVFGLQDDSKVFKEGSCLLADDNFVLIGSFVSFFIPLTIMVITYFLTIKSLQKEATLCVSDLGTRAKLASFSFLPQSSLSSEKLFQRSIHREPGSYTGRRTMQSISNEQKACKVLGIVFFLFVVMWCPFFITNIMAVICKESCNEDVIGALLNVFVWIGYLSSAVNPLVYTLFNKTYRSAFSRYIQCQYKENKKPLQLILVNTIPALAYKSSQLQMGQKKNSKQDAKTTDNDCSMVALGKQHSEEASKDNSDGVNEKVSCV
Assay Details: 5-HT2A receptor antagonism activity test (FLIPR Calcium 5 Assay Kit)
Test Conditions: read-out: 5-HT2A receptor antagonism (IC50, mol/L); CHO-K1 cells expressing human recombinant 5-HT2A receptor; α-methyl-5-hydroxytryptamine 300 nM; 0.1 nM-10000 nM
Observation Type: IC50 (nM)
Give the quantity in nM, number only.

Compound	Tested On	Value Reported
O=C1CSc2ccc(CCN3CCN(c4cccc5sccc45)CC3)cc2N1	human recombinant 5-HT2A receptor (Homo sapiens (Human))	52.2
CC(=O)Nc1nc2cc(CCN3CCN(c4cccc5sccc45)CC3)ccc2s1	human recombinant 5-HT2A receptor (Homo sapiens (Human))	75
O=C1CCc2cc(CCCCN3CCC(c4cccc5sccc45)CC3)ccc2N1	human recombinant 5-HT2A receptor (Homo sapiens (Human))	106

Note: attention shifts to another entry.
// lookup IC50 for Cl.O=S1(=O)NCCc2ccc(CCN3CCN(c4cccc5sccc45)CC3)cc21 [Compound of example 81, hydrochloride]
1.67
